Hi there, I'd appreciate the recorded IC50 for every entry that follows.
Please reply with the bare figure in nM and do not write the unit itself.

Param readout = IC50; param system = UniProtKB P04818; param query = Cc1[nH]c2nc(N)nc(O)c2c1Sc1ccc(Cl)c([N+](=O)[O-])c1 ; response: value 460

Param readout = IC50; param system = UniProtKB P04818; param query = Cc1[nH]c2nc(N)nc(O)c2c1Sc1ccc(Br)cc1 ; response: value 460

Param readout = IC50; param system = UniProtKB P04818; param query = Cc1[nH]c2nc(N)nc(O)c2c1Sc1cc(Cl)cc(Cl)c1 ; response: value 2400

Param readout = IC50; param system = UniProtKB P04818; param query = Cc1[nH]c2nc(N)nc(O)c2c1Sc1ccc(Br)c(Cl)c1 ; response: value 220

Param readout = IC50; param system = UniProtKB P04818; param query = Cc1[nH]c2nc(N)nc(O)c2c1Sc1ccc(F)c(F)c1 ; response: value 900

Param readout = IC50; param system = UniProtKB P04818; param query = Cc1[nH]c2nc(N)nc(O)c2c1Sc1cc(F)cc(F)c1 ; response: value 2700

Param readout = IC50; param system = UniProtKB P04818; param query = Cc1[nH]c2nc(N)nc(O)c2c1Sc1ccc(F)c(Cl)c1 ; response: value 830

Param readout = IC50; param system = UniProtKB P04818; param query = Cc1[nH]c2nc(N)nc(O)c2c1Sc1cccc(F)c1 ; response: value 2800

Param readout = IC50; param system = UniProtKB P04818; param query = Cc1[nH]c2nc(N)nc(O)c2c1Sc1ccc(OC(F)(F)F)cc1 ; response: value 2300

Param readout = IC50; param system = UniProtKB P04818; param query = Cc1[nH]c2nc(N)nc(O)c2c1Sc1cccc(Br)c1 ; response: value 1200

* * *

reported metric: IC50 (nM)
Please reply with the bare figure in nM and do not write the unit itself.

Param readout = IC50; param system = Thymidylate synthase (Homo sapiens); param query = Cc1[nH]c2nc(N)nc(O)c2c1Sc1ccc(Br)c([N+](=O)[O-])c1 ; response: value 210

Param readout = IC50; param system = Thymidylate synthase (Homo sapiens); param query = Cc1[nH]c2nc(N)nc(O)c2c1Sc1cc([N+](=O)[O-])cc([N+](=O)[O-])c1 ; response: value 23000

Param readout = IC50; param system = Thymidylate synthase (Homo sapiens); param query = Cc1[nH]c2nc(N)nc(O)c2c1Sc1ccc(C(F)(F)F)cc1 ; response: value 800

Param readout = IC50; param system = Thymidylate synthase (Homo sapiens); param query = Cc1[nH]c2nc(N)nc(O)c2c1Sc1cccc(Cl)c1 ; response: value 1400

Param readout = IC50; param system = Thymidylate synthase (Homo sapiens); param query = Cc1[nH]c2nc(N)nc(O)c2c1Sc1ccc(F)cc1 ; response: value 1400

Param readout = IC50; param system = Thymidylate synthase (Homo sapiens); param query = Cc1[nH]c2nc(N)nc(O)c2c1Sc1ccc(C#N)cc1 ; response: value 280

* * *

Target sequence: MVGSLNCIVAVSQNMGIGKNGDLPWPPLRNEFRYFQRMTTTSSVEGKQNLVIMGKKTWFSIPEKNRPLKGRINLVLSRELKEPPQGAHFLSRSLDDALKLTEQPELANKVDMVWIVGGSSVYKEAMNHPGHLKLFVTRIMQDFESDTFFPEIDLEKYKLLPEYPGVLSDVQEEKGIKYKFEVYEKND
pIC50: −log10 of the molar value.
reported metric: pIC50

Which pIC50 is listed for Cc1[nH]c2nc(N)nc(O)c2c1Sc1ccc(F)cc1 ? < 4.49

Which pIC50 is listed for Cc1[nH]c2nc(N)nc(O)c2c1Sc1ccc(F)c(F)c1 ? < 4.49

Which pIC50 is listed for Cc1[nH]c2nc(N)nc(O)c2c1Sc1cc(F)cc(F)c1 ? < 4.49

Which pIC50 is listed for Cc1[nH]c2nc(N)nc(O)c2c1Sc1cccc(Cl)c1 ? < 4.49

Which pIC50 is listed for Cc1[nH]c2nc(N)nc(O)c2c1Sc1ccc(C(F)(F)F)cc1 ? < 4.54

Which pIC50 is listed for Cc1[nH]c2nc(N)nc(O)c2c1Sc1ccc(C#N)cc1 ? < 4.47

Which pIC50 is listed for Cc1[nH]c2nc(N)nc(O)c2c1Sc1ccc(Br)c(Cl)c1 ? < 4.59

Which pIC50 is listed for Cc1[nH]c2nc(N)nc(O)c2c1Sc1ccc(F)c(Cl)c1 ? < 4.51

Which pIC50 is listed for Cc1[nH]c2nc(N)nc(O)c2c1Sc1ccc(Br)cc1 ? < 4.55

Which pIC50 is listed for Cc1[nH]c2nc(N)nc(O)c2c1Sc1cc(C(F)(F)F)cc(C(F)(F)F)c1 ? < 4.60

* * *

pIC50: −log10 of the molar value.
reported metric: pIC50

Param readout = pIC50; param system = UniProtKB C3SWJ7; param query = Cc1[nH]c2nc(N)nc(O)c2c1Sc1cc([N+](=O)[O-])cc([N+](=O)[O-])c1 ; response: value < 4.64

Param readout = pIC50; param system = UniProtKB C3SWJ7; param query = Cc1[nH]c2nc(N)nc(O)c2c1Sc1ccc(Br)c([N+](=O)[O-])c1 ; response: value 4.96

Param readout = pIC50; param system = UniProtKB C3SWJ7; param query = Cc1[nH]c2nc(N)nc(O)c2c1Sc1ccc(Cl)c([N+](=O)[O-])c1 ; response: value 4.64

Param readout = pIC50; param system = UniProtKB C3SWJ7; param query = Cc1[nH]c2nc(N)nc(O)c2c1Sc1cc(Cl)cc(Cl)c1 ; response: value < 4.62

Param readout = pIC50; param system = UniProtKB C3SWJ7; param query = Cc1[nH]c2nc(N)nc(O)c2c1Sc1ccc(OC(F)(F)F)cc1 ; response: value < 4.64

Param readout = pIC50; param system = UniProtKB C3SWJ7; param query = Cc1[nH]c2nc(N)nc(O)c2c1Sc1cccc(Br)c1 ; response: value < 4.62

Param readout = pIC50; param system = UniProtKB C3SWJ7; param query = Cc1[nH]c2nc(N)nc(O)c2c1Sc1cccc(F)c1 ; response: value < 4.55

These measurements were taken from ChEMBL document CHEMBL1144372.
